These entries and their values trace back to PubChem BioAssay.

# experiment.notes: probe aLefty2 binding to arrayed compounds – biochemical, biotinylated probe, 635/667 nm fluorescence, primary screen (AID 1094);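 also: score merges spot fluorescence near 667 nm with spot signal-to-noise ratio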
# conditions: small-molecule microarray, higher = more signal
composite z-score by entry:
metric: composite z-score

>>> measured_value("CCN(CC)c1ccc(N2CC=CC34O[C@@H]5C=CCCOC(=O)C5[C@H]3C(=O)N(CCCO)[C@@H]4C2=O)cc1 (some centres undefined)")
-0.122
>>> measured_value("COCCOC(=O)N1C(=O)[C@@]2(c3ccccc31)[C@H](c1ccc(O)cc1)N1[C@H](c3ccccc3)[C@H](c3ccccc3)OC(=O)[C@H]1[C@@H]2C(N)=O")
-0.126
>>> measured_value("CCCCCCCCCCC(O)C1C=CC2C(=O)N(c3ccccc3)C(=O)C2N1Nc1ccc([N+](=O)[O-])cc1 (centres undefined)")
-0.0059
>>> measured_value("Cc1ccc(N2C(=O)c3ccccc3[C@@H](C(=O)NC(C)C)[C@@H]2c2ccc(CO)cc2)nc1")
-0.0336

* * *

Quick reference: z-score of the listed items.
# experiment.notes: changes in parasitized red cell lysis, either direction – P. falciparum Indochina, OD700, 3 h, PSAC antagonist project, primary screen (AID 1156)
# conditions: P. falciparum-infected erythrocytes, osmotic lysis, higher = more signal, called active from +8 up or from −8 down
Activity calls are given as the source filed them.
metric: z-score

>>> measured_value("C[C@]1(C(=O)NCC(F)(F)F)c2ccccc2C(=O)N(Cc2cc(F)cc(C(F)(F)F)c2)[C@H]1c1ccc(CO)cc1")
"2.21 (inactive)"
>>> measured_value("O=C1C2C=CC(C(O)c3ccc(B(O)O)cc3)N(Nc3ccc([N+](=O)[O-])cc3)C2C(=O)N1c1ccccc1 (centres undefined)")
"0.136 (inactive)"
>>> measured_value("CC(=O)NCCCC[C@@H]1NC(=O)[C@@H]2C[C@H](C(=O)NCc3ccc(F)cc3)[C@H](c3ccc(O)cc3)N2C1=O")
"-1.64 (inactive)"
>>> measured_value("Cc1ccc([C@H]2C(C(=O)O)=C[C@@H](C(C)C)N2S(=O)(=O)c2ccc(C)cc2)cc1")
"-0.539 (inactive)"

* * *

Form field: z-score (one value per entry).
# experiment.notes: growth effects on S. cerevisiae YJM789 – YJM789 clinical isolate, OD600, 24 h, basal, primary screen (AID 1089);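 also: growth of clinical yeast isolate S. cerevisiae YJM 789 seeded 1000 cells per well; test concentration not given here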
# conditions: higher = more signal, called active from +8 up or from −8 down
metric: z-score

>>> measured_value("CN(C)CCCCNC(=O)[C@@H]1C[C@@H]2C(=O)N[C@@H](CCCCN)C(=O)N2[C@@H]1c1cccc(OCCO)c1")
-0.0533
>>> measured_value("C=CCNC(=O)[C@@H]1[C@H]2C(=O)O[C@H](c3ccccc3)[C@H](c3ccccc3)N2[C@H](c2ccccc2OCCO)[C@@]12C(=O)N(C(=O)OCCOC)c1ccc(C#CCC(C(=O)OC)C(=O)OC)cc12")
1.38
>>> measured_value("CC(=O)n1cc(C(O)C2C=CC3C(=O)N(c4ccccc4)C(=O)C3N2Nc2ccc(C#N)cc2)c2ccccc21 (centres undefined)")
-0.589
>>> measured_value("COCCOC(=O)N1C(=O)[C@@]2(c3cc(C#Cc4ccc(OC)cc4)ccc31)[C@H](C(N)=O)[C@H]1C(=O)O[C@H](c3ccccc3)[C@H](c3ccccc3)N1[C@@H]2c1ccc(O)cc1")
-0.613
